Taken from ChEMBL document CHEMBL1129198.

System: Streptococcus pneumoniae
Experiment: Antibacterial activity against penicillin-resistant Streptococcus pneumoniae 671319
Assay type: functional
reported-metric: MIC (µg/mL)
Number only, in µg/mL; omit the unit.

Req: Checklist item: MIC tested on Streptococcus pneumoniae, entry `C[C@@H](O)[C@H]1C(=O)N2C(C(=O)O)=C(Sc3ccc(C#N)c4ccccc34)[C@H](C)[C@H]12` , value?
Resp: 0.25

Req: For Streptococcus pneumoniae, provide MIC of `C[C@@H](O)[C@H]1C(=O)N2C(C(=O)[O-])=C(COc3ccc4cc(Cn5cc[n+](C)c5)ccc4c3)[C@H](C)[C@H]12` please.
Resp: 0.06

Req: Return MIC measured with Streptococcus pneumoniae given this molecule: `C[C@@H](O)[C@H]1C(=O)N2C(C(=O)O)=C(Sc3ccc4ccccc4c3)[C@H](C)[C@H]12`
Resp: 2

----------
Tested on: Staphylococcus aureus
Assay: Antibacterial activity against methicillin-sensitive Staphylococcus aureus 601055.
Type: functional
Provide the recorded MIC for the entries that follow.
Only the number, expressed in µg/mL, is required.

Req: Query: MIC; subject: `C[C@@H](O)[C@H]1C(=O)N2C(C(=O)[O-])=C(COc3ccc4nc(C[n+]5ccccc5)sc4c3)[C@H](C)[C@H]12`
Resp: 0.03

Req: Give the measured MIC of `C[C@@H](O)[C@H]1C(=O)N2C(C(=O)O)=C(COc3cccc4c3CCCC4=O)[C@H](C)[C@H]12` .
Resp: 0.016

Req: Which MIC value is on record for `C[C@@H](O)[C@H]1C(=O)N2C(C(=O)O)=C(Sc3ccc(C#N)c4ccccc34)[C@H](C)[C@H]12` ?
Resp: 0.016

Req: Tell me the measured MIC of `C[C@@H](O)[C@H]1C(=O)N2C(C(=O)O)=C(COc3ccc4cc(C(N)=O)ccc4c3)[C@H](C)[C@H]12` , please.
Resp: 0.008

----------
Test system: Staphylococcus aureus
Experiment: Antibacterial activity against methicillin-sensitive Staphylococcus aureus 601055.
Assay type: functional
Response field label takes T when MIC is strictly below 0.03 µg/mL and F in all other cases.

Req: Find out if reported MIC for `C[C@@H](O)[C@H]1C(=O)N2C(C(=O)O)=C(COc3cccc4c3C/C(=C\c3cccs3)C4=O)[C@H](C)[C@H]12` is less than 0.03 µg/mL
Resp: T

Req: Is 0.03 µg/mL strictly greater than the compound's reported MIC? compound: `C[C@@H](O)[C@H]1C(=O)N2C(C(=O)O)=C(SCCc3ccc4ccccc4c3)[C@H](C)[C@H]12`
Resp: F

Req: is_below(MIC, 0.03 µg/mL) for `C[C@@H](O)[C@H]1C(=O)N2C(C(=O)[O-])=C(COc3ccc4cc(Cn5cc[n+](C)c5)ccc4c3)[C@H](C)[C@H]12` ?
Resp: T

Req: Determine if `C[C@@H](O)[C@H]1C(=O)N2C(C(=O)O)=C(Sc3cccc4ccccc34)[C@H](C)[C@H]12` shows MIC strictly lower than 0.03 µg/mL.
Resp: F

Req: Hi there! Is MIC for `C[C@@H](O)[C@H]1C(=O)N2C(C(=O)O)=C(COc3ccc4ccccc4c3)[C@H](C)[C@H]12` below 0.03 µg/mL, do you know?
Resp: T

Req: Confirm or reject: MIC of `C[C@@H](O)[C@H]1C(=O)N2C(C(=O)O)=C(CSc3ccc4c(c3)CC(=O)N4C)[C@H](C)[C@H]12` lies strictly below 0.03 µg/mL
Resp: F

Req: Dear reviewer, please state whether `C[C@@H](O)[C@H]1C(=O)N2C(C(=O)O)=C(COc3ccc4occ(CN(C)C)c(=O)c4c3)[C@H](C)[C@H]12` has MIC strictly beneath 0.03 µg/mL.
Resp: F

Req: Please check: MIC for `C[C@@H](O)[C@H]1C(=O)N2C(C(=O)O)=C(CNC(=O)c3ccc4ccccc4c3)[C@H](C)[C@H]12` , strictly under 0.03 µg/mL or not?
Resp: F

Req: Would you kindly verify if MIC of `C[C@@H](O)[C@H]1C(=O)N2C(C(=O)O)=C(CSc3ccc4ccccc4c3)[C@H](C)[C@H]12` is strictly less than 0.03 µg/mL?
Resp: T

Req: Input `C[C@@H](O)[C@H]1C(=O)N2C(C(=O)O)=C(COc3cccc4c3CCC4=O)[C@H](C)[C@H]12` ; condition: MIC strictly below 0.03 µg/mL. Does it hold?
Resp: T

Req: Problem: For the compound `C[C@@H](O)[C@H]1C(=O)N2C(C(=O)O)=C(SCCNC(=O)c3ccc4ccccc4c3)[C@H](C)[C@H]12` , is MIC under 0.03 µg/mL?
Resp: F
